# Test system: HeLa thapsigargin-induced death, ATPlite luminescence, 24 h
# Protocol Details: HeLa survival under thapsigargin ER stress – cell-based, HeLa cervical carcinoma, ATP content, SAR follow-up (AID 1356)
# Test Settings: measured here: survival at thapsigargin 20 uM; at 25 µM; stronger effect = higher value
Measured Quantity: survival (%)
Numeric only. Scale: %

// known answers, use as guide
COc1ccc(C2CC(=O)C3=C(C2)Nc2ccccc2NC3c2cccc(Br)c2)cc1OC (stereo unspecified); 90
COc1ccc(C2CC(=O)C3=C(C2)Nc2ccccc2NC3c2cccc(Oc3ccccc3)c2)cc1OC (stereo unspecified); 102
CCCOc1ccc(C2Nc3ccccc3NC3=C2C(=O)CC(c2ccc(OC)c(OC)c2)C3)cc1 (stereo unspecified); 90
CSc1ccc(C2Nc3ccccc3NC3=C2C(=O)CC(c2ccccc2)C3)cc1 (stereo unspecified); 23
CCOc1cc(C2Nc3ccccc3NC3=C2C(=O)CC(c2ccc(OC)cc2)C3)cc(Cl)c1O (stereo unspecified); 8

Recall the recorded survival for O=C1CC(c2ccccc2)CC2=C1C(c1c(F)cccc1Cl)Nc1ccccc1N2 (stereo unspecified) with HeLa thapsigargin-induced death, ATPlite luminescence, 24 h and state it.
18
